experiment: chemical genetic growth profiling, strain panel (AID 1159580);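 further: tested at 20 µM; growth read once vehicle control cultures reached saturation at 30 °C; 1 = growth at the plate median or of vehicle wells; lower values mean less growth of the strain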; settings: S. cerevisiae deletion strains, growth OD, locus YJL095W, strain BCK1 (second series)
Out of some 5,500 compounds screened, about 2,000 (36%) were called active. Another 18% or so got no clear call; they are omitted. No stated cut-off is given here; in the data, active means normalized growth mostly below about 0.91 (no sharp cut-off); inconclusive means no clear call, values can overlap the other calls; inactive means mostly above about 0.92. The list shows a part of the results.
Give one outcome, nothing more. List: class 1 = active, class 0 = inactive

Past entries and their recorded results:
> print(dat)
                                   molecule  class.label
1       O=C(/C=C/c1ccc(O)c(O)c1)OCCc1ccccc1      class 1
2  C[C@H]1COc2c(N3CCN(C)CC3)c(F)cc3c(=O)c(C(=O)O)cn1c23      class 0

Hey, what did the test say about CC(=O)S[C@@H]1CC2=CC(=O)CC[C@]2(C)[C@H]2CC[C@@]3(C)[C@@H](CC[C@@]34CCC(=O)O4)C12 (stereo partly drawn) ?
class 0
